Listed here: items and their measured Metabolic stability in human hepatic microsome.
- procedure-text: Test 4: metabolic stability test in human hepatic microsome
- Format: in vitro ADME
- test-parameters: 0.1 mg/mL microsome, 0.1 μmol/L compound, 37° C., 30 minutes
Give the quantity in mL/min/mg protein, number only.

Cc1noc2c1C(=O)N(CCN1CCC(c3noc4ccccc34)CC1)CCC2 [Example 38]
0.136
Cc1noc2ccn(CCN3CCN(c4nsc5ccccc45)CC3)c(=O)c12 [Example 53]
0.436
O=C1c2sccc2CCN1CCN1CCC(c2noc3ccccc23)CC1 [Example 126]
0.135
Cn1ccc2c1CCN(CCN1CCN(c3nsc4ccccc34)CC1)C2=O [Example 61]
0.056
Cc1nc2c(o1)C(=O)N(CCN1CCN(c3nsc4ccccc34)CC1)CC2 [Example 45]
0.032

input: // lookup Metabolic stability in human hepatic microsome for CCc1cc2c(cn1)C(=O)N(CCN1CCN(c3nsc4ccccc34)CC1)CC2 [Example 104]
output: 0.358

----------
Listed here: items and their measured Ki.
- tested-system: human D2 receptor (Homo sapiens (Human), UniProt P14416)
- Sequence (P14416 whole entry): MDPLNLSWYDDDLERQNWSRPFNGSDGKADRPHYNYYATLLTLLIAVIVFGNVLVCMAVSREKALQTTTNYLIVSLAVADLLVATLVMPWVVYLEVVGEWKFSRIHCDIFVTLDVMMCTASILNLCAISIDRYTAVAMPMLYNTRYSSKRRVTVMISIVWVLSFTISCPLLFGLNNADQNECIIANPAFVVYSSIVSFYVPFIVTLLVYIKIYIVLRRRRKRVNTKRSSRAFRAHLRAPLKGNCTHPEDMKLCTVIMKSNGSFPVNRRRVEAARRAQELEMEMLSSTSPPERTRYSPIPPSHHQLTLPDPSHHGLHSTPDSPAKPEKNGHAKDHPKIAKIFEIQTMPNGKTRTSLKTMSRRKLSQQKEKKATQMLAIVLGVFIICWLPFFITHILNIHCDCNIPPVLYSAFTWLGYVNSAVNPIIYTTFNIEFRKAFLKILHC
- procedure-text: Test 1: binding activity for human D2 receptor ([3H]Spiperone, CHO cell membrane fraction)
- test-parameters: human D2 receptor, [3H]Spiperone
Give the quantity in µM, number only.

// below: answered compounds
Cn1ccc2c1CCN(CCN1CCN(c3noc4ccccc34)CC1)C2=O
1.68
O=C1c2[nH]ncc2CCN1CCN1CCC(c2noc3ccccc23)CC1
0.312
Cc1cncc2c1CCN(CCN1CCN(c3noc4ccccc34)CC1)C2=O
1.08
Cc1nccc2c1C(=O)N(CCN1CCN(c3noc4ccccc34)CC1)CC2
1.07
Cn1ncc2c1CCCN(CCN1CCC(c3noc4ccccc34)CC1)C2=O
0.222

input: Request: Ki, test system human D2 receptor (Homo sapiens (Human), UniProt P14416), entry Cn1nc2c(c1Br)C(=O)N(CCN1CCN(c3nsc4ccccc34)CC1)CC2
output: 0.234

----------
In what follows, each item is paired with its pKi for human 5-HT1A receptor (Homo sapiens (Human), UniProt P08908).
pKi is a log-scale quantity: -log10 of the concentration expressed in molar.

CC1(C)CN(CCN2CCC(c3noc4cc(F)ccc34)CC2)C(=O)c2ncccc21 [Example 119]
8.41
O=C1c2nc[nH]c2CCN1CCN1CCC(c2noc3ccccc23)CC1 [Example 191]
6.09
O=c1c2cnccc2ccn1CCN1CCN(c2noc3ccccc23)CC1 [Example 116]
6.89
Cc1c2c(nn1C)CCN(CCN1CCC(c3noc4ccccc34)CC1)C2=O [Example 37]
8.57

input: Request: pKi, test system human 5-HT1A receptor (Homo sapiens (Human), UniProt P08908), entry O=C1c2ncccc2CCN1CCN1CCN(c2noc3ccc(F)cc23)CC1 [Example 147]
output: 6.91

input: Request: pKi, test system human 5-HT1A receptor (Homo sapiens (Human), UniProt P08908), entry O=C1c2cnc(OC3COC3)cc2CCN1CCN1CCN(c2nsc3ccccc23)CC1 [Example 111]
output: 9.04

input: Request: pKi, test system human 5-HT1A receptor (Homo sapiens (Human), UniProt P08908), entry Cc1nn(C)c2c1C(=O)N(CCN1CCC(c3noc4ccccc34)CC1)CCC2 [Example 91]
output: 9.24

input: Request: pKi, test system human 5-HT1A receptor (Homo sapiens (Human), UniProt P08908), entry Cn1ncc2c1C(=O)N(CCN1CCC(c3noc4ccccc34)CC1)CCC2 [Example 155]
output: 7.85

input: Request: pKi, test system human 5-HT1A receptor (Homo sapiens (Human), UniProt P08908), entry Cc1nccc2c1C(=O)N(CCN1CCC(c3noc4ccccc34)CC1)CC2 [Example 87]
output: 9.92
